assay: chemical genetic growth profiling, strain panel (AID 1159580);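 also: tested at 20 µM; growth read once vehicle control cultures reached saturation at 30 °C; 1 = growth at the plate median or of vehicle wells; lower values mean less growth of the strain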; details: S. cerevisiae deletion strains, growth OD, locus YKR026C, strain gcn3, hits give low values
About 2,000 (36%) of roughly 5,500 compounds were called active. Not shown: some 18% with an inconclusive outcome. Some of the results follow.
Checkbox rule: normalized growth lower than 1 = satisfied; normalized growth not lower than 1 = not satisfied.

[[record]]
molecule = "COc1cc2c(cc1-c1coc3c4c(c(OC)cc3c1=O)OC(C)(C)C=C4)OCO2"
class_label = "not satisfied"

[[record]]
molecule = "CCOc1nc2cccc(C(=O)OC(C)OC(=O)OC3CCCCC3)c2n1Cc1ccc(-c2ccccc2-c2nn[nH]n2)cc1 (stereo not given)"
class_label = "not satisfied"

[[record]]
molecule = "Fc1ccc(C(c2ccc(F)cc2)N2CCN(C/C=C/c3ccccc3)CC2)cc1"
class_label = "satisfied"


====

test: chemical genetic growth profiling, strain panel (AID 1159580);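 also: tested at 20 µM; growth read once vehicle control cultures reached saturation at 30 °C; 1 = growth at the plate median or of vehicle wells; lower values mean less growth of the strain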; conditions: S. cerevisiae deletion strains, growth OD, locus YLR320W, strain mms22, hits give low values
Hit rate of the full screen: of about 5,500 compounds, about 2,000 (36%) were called active. About 18% were inconclusive and are not listed. The list shows a part of the results.
property-measured: normalized growth

[[record]]
molecule = "c1ccc2c(c1)[nH]c1cnccc12"
assay_result = "0.994 (inactive)"

[[record]]
molecule = "O=c1c(-c2ccc3c(c2)OCO3)coc2cc(O)ccc12"
assay_result = "0.957 (inactive)"

[[record]]
molecule = "CN(C)c1nc(N(C)C)nc(N(C)C)n1"
assay_result = "0.949 (inactive)"

[[record]]
molecule = "C=C(C)c1cc2cc(C(C)=O)c(O)cc2o1"
assay_result = "0.908 (inactive)"

[[record]]
molecule = "CC1=C2CCC3C(CC[C@]4(C)C(=O)CCC34)[C@@]2(C)CCC1=O (some centres undefined)"
assay_result = "0.94 (inactive)"

[[record]]
molecule = "C[C@]12C=CC(=O)C=C1CCC1C2CC[C@]2(C)C(=O)CCC12 (some centres undefined)"
assay_result = "0.946 (inactive)"

[[record]]
molecule = "CC(=O)Oc1ccc2c(c1)CCC1C2CC[C@@]2(C)C1CC[C@@H]2OC(C)=O (some centres undefined)"
assay_result = "0.908 (inactive)"

[[record]]
molecule = "Nc1ncnc2nc[nH]c12"
assay_result = "0.973 (inactive)"

[[record]]
molecule = "CC(=O)O[C@H]1CC2CCC3C(CC[C@@]4(C)C3C[C@H]([N+]3(C)CCCCC3)[C@@H]4OC(C)=O)[C@@]2(C)C[C@@H]1[N+]1(C)CCCCC1 (some centres undefined)"
assay_result = "1.01 (inactive)"

[[record]]
molecule = "O=c1[nH]cnc2nc[nH]c12"
assay_result = "1.03 (inactive)"

[[record]]
molecule = "CC(=O)OC1CCC2C3CCc4cc(O)ccc4C3CCC12C (centres undefined)"
assay_result = "0.922 (inactive)"

[[record]]
molecule = "C=C1CC2C(CCC3(C)C(=O)CCC23)C2(C)C=CC(=O)C=C12 (centres undefined)"
assay_result = "0.991 (inactive)"

[[record]]
molecule = "COc1ccc(Cc2nccc3cc(OC)c(OC)cc23)cc1OC"
assay_result = "1.01 (inactive)"

[[record]]
molecule = "CC(=O)OC1CCC23C(=O)OC45CCC(C6=CC(=O)OC6)C4(C)CCC2C5CCC3(O)C1 (centres undefined)"
assay_result = "0.988 (inactive)"

[[record]]
molecule = "NCCS"
assay_result = "0.985 (inactive)"

[[record]]
molecule = "CCOc1ccc(Cc2nccc3cc(OCC)c(OCC)cc23)cc1OCC"
assay_result = "0.949 (inactive)"

[[record]]
molecule = "C[C@]12C=CC(=O)C=C1CCC1C2C(=O)C[C@@]2(C)C1CC[C@]2(O)C(=O)CO (some centres undefined)"
assay_result = "0.985 (inactive)"

[[record]]
molecule = "CCCCC(=O)O[C@H]1CCC2C3CCc4cc(O)ccc4C3CC[C@@]21C (some centres undefined)"
assay_result = "0.981 (inactive)"

[[record]]
molecule = "COc1cc2c(cc1-c1coc3c4c(c(OC)cc3c1=O)OC(C)(C)C=C4)OCO2"
assay_result = "0.912 (inactive)"

[[record]]
molecule = "N#C/C(=C\\c1ccc(O)cc1)C(=O)O"
assay_result = "1.03 (inactive)"

[[record]]
molecule = "Cc1cccc(N(C)C(=S)Oc2ccc3ccccc3c2)c1"
assay_result = "0.98 (inactive)"

[[record]]
molecule = "Cn1c(=O)[nH]c(=O)c2[nH]cnc21"
assay_result = "0.987 (inactive)"

[[record]]
molecule = "C[C@]12CCC3C(CC[C@H]4CC(=O)CC[C@]34C)C1CCC2=O (some centres undefined)"
assay_result = "0.595 (active)"

[[record]]
molecule = "COc1cc2ccc(=O)oc2c2ccoc12"
assay_result = "0.752 (active)"


====

The compounds listed here are annotated with their normalized growth.
experiment: chemical genetic growth profiling, strain panel (AID 1159580);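 also: tested at 20 µM; growth read once vehicle control cultures reached saturation at 30 °C; 1 = growth at the plate median or of vehicle wells; lower values mean less growth of the strain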; conditions: S. cerevisiae deletion strains, growth OD, locus YLR058C, strain SHM2, hits give low values
About 2,000 (36%) of roughly 5,500 compounds were called active. Inconclusive results (about 18%) are left out. This is one part of the list.
property-measured: normalized growth

[[record]]
compound = "O=c1n(CCCN2CCN(c3cccc(Cl)c3)CC2)nc2ccccn12"
property_measured = "normalized growth"
assay_result = 0.964

[[record]]
compound = "O=c1[nH]cnc2nc[nH]c12"
property_measured = "normalized growth"
assay_result = 1

[[record]]
compound = "CC(C)=CCOc1c2occc2cc2ccc(=O)oc12"
property_measured = "normalized growth"
assay_result = 0.748

[[record]]
compound = "Nc1ncnc2nc[nH]c12"
property_measured = "normalized growth"
assay_result = 0.908

[[record]]
compound = "OCCN1CCN(CCCN2c3ccccc3Sc3ccc(Cl)cc32)CC1"
property_measured = "normalized growth"
assay_result = 1.01

[[record]]
compound = "CC(C)=CCOc1cc2oc(=O)ccc2cc1O"
property_measured = "normalized growth"
assay_result = 0.905

[[record]]
compound = "O=c1ccc2cc(O[C@@H]3O[C@H](CO)[C@@H](O)[C@H](O)[C@H]3O)c(O)cc2o1"
property_measured = "normalized growth"
assay_result = 1.02

[[record]]
compound = "CN1CCN(CCCN2c3ccccc3Sc3ccc(Cl)cc32)CC1"
property_measured = "normalized growth"
assay_result = 0.963

[[record]]
compound = "COC(=O)C[C@H]1C(C)(C)C(OC(C)=O)[C@]2(O)C=C3C4CC(=O)O[C@@H](c5ccoc5)[C@]4(C)CCC3[C@@]1(C)C2=O (stereo partly specified)"
property_measured = "normalized growth"
assay_result = 1

[[record]]
compound = "Cc1ncc([N+](=O)[O-])n1CCO"
property_measured = "normalized growth"
assay_result = 0.97

[[record]]
compound = "N#Cc1ccc2c(c1)N(CCCN1CCC(O)CC1)c1ccccc1S2"
property_measured = "normalized growth"
assay_result = 1.01


====

test: chemical genetic growth profiling, strain panel (AID 1159580);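 also: tested at 20 µM; growth read once vehicle control cultures reached saturation at 30 °C; 1 = growth at the plate median or of vehicle wells; lower values mean less growth of the strain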; conditions: S. cerevisiae deletion strains, growth OD, locus YKL068W, hits give low values
About 2,000 (36%) of roughly 5,500 compounds were called active. Inconclusive results (about 18%) are left out. Some of the results follow.
property-measured: normalized growth

[[record]]
compound = "Cc1cc(C)nc(NS(=O)(=O)c2ccc(N)cc2)n1"
property_measured = "normalized growth"
assay_result = 0.982

[[record]]
compound = "c1coc(CNc2ncnc3nc[nH]c23)c1"
property_measured = "normalized growth"
assay_result = 0.979

[[record]]
compound = "COc1cc2ccc(=O)oc2c2ccoc12"
property_measured = "normalized growth"
assay_result = 0.999

[[record]]
compound = "CC(C)CCCC(C)C1CCC2C3CCC4CC(=O)CCC4(C)C3CCC12C (stereo not given)"
property_measured = "normalized growth"
assay_result = 1.01

[[record]]
compound = "CN1Cc2c(N)cccc2C(c2ccccc2)C1 (stereo not given)"
property_measured = "normalized growth"
assay_result = 1

[[record]]
compound = "O=c1cc(-c2ccc(O)cc2)oc2cc(O[C@@H]3O[C@H](CO)[C@@H](O)[C@H](O)[C@H]3O[C@@H]3OC[C@](O)(CO)[C@H]3O)cc(O)c12"
property_measured = "normalized growth"
assay_result = 0.991

[[record]]
compound = "COc1ccc2c(=O)c(CC(=O)O)coc2c1"
property_measured = "normalized growth"
assay_result = 0.993

[[record]]
compound = "CC(C)(O)CC[C@@H](O)[C@](C)(O)C1CC[C@@]2(O)C3=CC(=O)C4C[C@@H](O)[C@@H](O)C[C@]4(C)C3CC[C@]12C (stereo not given in full)"
property_measured = "normalized growth"
assay_result = 0.993

[[record]]
compound = "CCN(CC)CCNC(=O)COc1ccc(OC)cc1"
property_measured = "normalized growth"
assay_result = 0.983

[[record]]
compound = "C[C@]12CCC3C(CC[C@H]4CC(=O)CC[C@]34C)C1CCC2=O (stereo not given in full)"
property_measured = "normalized growth"
assay_result = 0.989

